- Test system: HMLE_sh_eGFP viability, CellTiter-Glo luminescence, 72 h
- Run description: cytotoxicity in HMLE control line with eGFP shRNA, dose response, counter-screen for HMLE_sh_ECad selective toxicity project, cell-based, HMLE_sh_eGFP, luminescence (AID 463074);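 note: counterscreen control line to flag general toxicity for the HMLE_sh_ECad screen; potency for loss of viability as luminescence drops below DMSO wells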
Activity calls are given as the source filed them.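 Rule for the calls: active = AC50 no more than tenfold above the top dose tested, or full inhibition at every dose with a flat fit (cut at about 19 µM in these data); inconclusive = flat curve fit with inhibition between 30% and 70%, or poor fit; inactive = AC50 more than tenfold above the top dose tested.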
Classes used: active, inactive

compound=Fc1ccc(NC(=S)Nc2cc(-c3ccccc3)[nH]n2)cc1Cl assigned_category=active
compound=O=C(CCCN1C(=O)/C(=C/c2ccccc2)SC1=S)NCCCn1ccnc1 assigned_category=inactive
compound=Clc1ccc(/C=C/c2nc3ccccc3[nH]2)cc1 assigned_category=active
compound=COc1ccc(C2=Nn3c(nnc3-c3ccccc3F)SC2)cc1OC1CCCC1 assigned_category=active
compound="CCOC(=O)c1c(NC(=O)C2COc3ccccc3O2)sc2c1CC(C)(C)NC2(C)C (stereo unspecified)" assigned_category=active
compound=Cc1cc(=O)[nH]c(N/N=C/c2ccccn2)n1 assigned_category=active
compound=CC(C)(C)[C@@H]1CCC(=O)N(CC[C@H](Sc2ccc(Br)cc2)c2ccccc2)CC1 assigned_category=active
compound="CC1CCCCN1c1cc(C#N)c(C#N)cc1[N+](=O)[O-] (stereo unspecified)" assigned_category=active
compound=COc1ccc(C)cc1NC(=O)c1ccccc1NS(=O)(=O)c1ccc(Cl)s1 assigned_category=active
compound=COc1ccc(/C=N/NC(=S)Nc2ccccc2[N+](=O)[O-])cc1O assigned_category=active
compound=CC[C@H]1CC2CN3CCc4c([nH]c5c([C@H]6C[C@H]7[C@H](CC)CN(C)[C@@H](Cc8c6[nH]c6ccccc86)[C@H]7C(=O)OC)c(OC)ccc45)C(C(=O)OC)(C2)C13 assigned_category=active
